The origin of these recorded values is ChEMBL document CHEMBL1649079.

Each entry below carries its measured pIC50, system: Outer membrane protein MIP (Legionella pneumophila, UniProt Q70YI1).
Sequence (Q70YI1 21-233 limits assumed): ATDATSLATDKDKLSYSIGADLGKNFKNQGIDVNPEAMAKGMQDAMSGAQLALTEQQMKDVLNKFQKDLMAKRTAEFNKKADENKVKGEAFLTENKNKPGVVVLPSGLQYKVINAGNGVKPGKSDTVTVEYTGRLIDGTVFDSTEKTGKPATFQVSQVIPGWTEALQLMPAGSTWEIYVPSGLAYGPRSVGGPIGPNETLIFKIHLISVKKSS
pIC50: −log10 of the molar value.

Task: Please give the measured pIC50 for this compound: COc1cc(CCCOC(=O)C2CCCCN2S(=O)(=O)c2cccc([N+](=O)[O-])c2)cc(OC)c1OC (stereo not given)
Output: < 4.00

Task: Data request, read-out pIC50, for CCOC(=O)C1CCCCN1S(=O)(=O)c1ccccc1 (stereo not given)
Output: < 4.00

Task: Request the reported pIC50 associated with Nc1cccc(S(=O)(=O)N2CCCCC2C(=O)OCCCc2cccnc2)c1 (stereo not given)
Output: < 4.00

Task: Given the compound CCOC(=O)C1CCCCN1C(=O)C(=O)C(C)CC (stereo not given) , what is its reported pIC50?
Output: < 4.00

Task: // query pIC50 value for entry CCOC(=O)C1CCCCN1S(=O)(=O)Cc1ccccc1 (stereo not given)
Output: 4.06

Task: Record request: pIC50 value, item CCC(C)C(=O)C(=O)N1CCCCC1C(=O)OCCCc1cc(OC)c(OC)c(OC)c1 (stereo not given)
Output: < 4.00

Task: Record request: pIC50 value, item O=C(OCCCc1cccnc1)C1CCCCN1S(=O)(=O)c1cccc([N+](=O)[O-])c1 (stereo not given)
Output: 4.49

Task: Item COc1cc(CCCOC(=O)C2CCCCN2S(=O)(=O)c2cccc(N)c2)cc(OC)c1OC (stereo not given) has what recorded pIC50?
Output: < 4.00

Task: Please give the measured pIC50 for this compound: CCOC(=O)C1CCCCN1S(=O)(=O)c1cccc([N+](=O)[O-])c1 (stereo not given)
Output: < 4.00

Task: Sample CCC(C)C(=O)C(=O)N1CCCCC1C(=O)OC(CCc1ccccc1)c1ccccc1 (stereo not given) — what was its pIC50?
Output: < 4.00
